Kindly state Ach percent inhibition of writhing for each of the entries shown.
System: acetylcholine-induced abdominal constriction
assay-summary: acetylcholine-induced abdominal constriction test (Ach)
Format: in vivo, mice
measurement-parameters: dose 25, s.c.
One number for each entry, in %.

Qu. Tell me its Ach percent inhibition of writhing on acetylcholine-induced abdominal constriction: CC(CN1CCCCC1CCC1CCCCC1)c1cccc(C(=O)c2ccccc2)c1 (centres unmarked) [Example 7F]
Ans. 7

Qu. Tell me its Ach percent inhibition of writhing on acetylcholine-induced abdominal constriction: CC(C)(CN1CCOCC1)c1cccc(C(=O)c2ccccc2)c1.Cl [Example 24H]
Ans. 7

For each entry beneath this line, provide reported Ach percent inhibition of writhing.
1. CC(CN1CCCCC1CC1CCCCC1)c1cccc(C(O)c2ccccc2)c1 (centres unmarked) [Example 1]
2. CC(C)(CN1CCC2(CC1)OCCO2)c1cccc(C(=O)c2ccccc2)c1.Cl [Example 24J]
3. CC(CN1CCCCC1C1CCCCC1)c1cccc(C(=O)c2ccccc2)c1 (centres unmarked) [Example 7E]

Ans.
1: 7; 2: 33; 3: 46

// provenance: patent US4417052A
